- System: Muscarinic receptor 1 (Rattus norvegicus)
- Sequence (P08482 1-460): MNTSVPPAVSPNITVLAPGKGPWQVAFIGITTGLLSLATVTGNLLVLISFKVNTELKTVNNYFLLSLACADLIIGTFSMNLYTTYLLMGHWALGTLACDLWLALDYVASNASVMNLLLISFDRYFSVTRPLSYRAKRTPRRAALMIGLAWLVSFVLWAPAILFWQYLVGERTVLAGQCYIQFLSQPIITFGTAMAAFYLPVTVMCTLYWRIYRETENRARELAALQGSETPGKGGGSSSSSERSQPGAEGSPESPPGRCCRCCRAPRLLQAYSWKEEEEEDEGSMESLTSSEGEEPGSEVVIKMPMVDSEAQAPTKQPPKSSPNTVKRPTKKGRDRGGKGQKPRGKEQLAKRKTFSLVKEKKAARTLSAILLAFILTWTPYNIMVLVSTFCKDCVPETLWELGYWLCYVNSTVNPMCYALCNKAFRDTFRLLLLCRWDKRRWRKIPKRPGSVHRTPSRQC
Test readout: IC50 (nM)
Kindly provide the numeric value in nM only, without the unit symbol.

Compound	IC50, nM
O=S(=O)(c1ccc(N2CCCCCC2)cc1)N1CCCC1=S [Example 5]	10

Field: next compound
Give its IC50 value. Item: O=S(=O)(c1ccc(N2CCCCC2)cc1)N1CCCCC1=S [Example 4]
30
